Below, each entry is listed with its recorded relative viability.
# System: LU99A
# method.description: relative viability (nuclei count vs DMSO), 5 days (fraction); higher = more cells survive
# reported.conditions: first compound 4 µM
Hey, just send me the number, nothing else.

// solved cases for relative viability follow
COc1cc(N2CCC(C(N)=O)CC2)ccc1Nc1nc(N)c(Cl)c(Nc2ccccc2S(=O)(=O)C(C)C)n1 [HG-5-88-01] + COc1cc2c(Oc3ccc(NC(=O)C4(C(=O)Nc5ccc(F)cc5)CC4)cc3F)ccnc2cc1OCCCN1CCOCC1 [Foretinib] (partner 0.25 µM) : 0.801
C[C@@H]1CN(CC(=O)Nc2ccc3c(c2)Cc2cccc(-c4cc(=O)cc(N5CCOCC5)o4)c2S3)C[C@H](C)O1 + CC1(C)CCC(c2ccc(Cl)cc2)=C(CN2CCN(c3ccc(C(=O)NS(=O)(=O)c4ccc(N[C@H](CCN5CCOCC5)CSc5ccccc5)c(S(=O)(=O)C(F)(F)F)c4)cc3)CC2)C1 [Navitoclax] (partner 0.5 µM) : 0.821
COc1cc(N2CCC(C(N)=O)CC2)ccc1Nc1nc(N)c(Cl)c(Nc2ccccc2S(=O)(=O)C(C)C)n1 [HG-5-88-01] + NC(=O)Nc1cc(-c2cccc(F)c2)sc1C(=O)N[C@H]1CCCNC1 [AZD7762] (partner 0.2 µM) : 0.295

Could you now look at the following molecule, please?
For the molecule COc1cc(N2CCC(C(N)=O)CC2)ccc1Nc1nc(N)c(Cl)c(Nc2ccccc2S(=O)(=O)C(C)C)n1 [HG-5-88-01] + COc1cccc2cc(-c3nc([C@H]4CC[C@H](C(=O)O)CC4)n4ncnc(N)c34)[nH]c12 [OSI-027] (partner 0.5 µM) , what relative viability is on record?
0.263

###

Below, each entry is listed with its recorded relative viability.
# Tested on: NCI-H2405
# method.description: relative viability (nuclei count vs DMSO), 5 days (fraction); higher = more cells survive
# reported.conditions: first compound 2.53 µM
Hey, just send me the number, nothing else.

CCCCCCCCCCCC1=C(O)C(=O)C=C(O)C1=O [Embelin] + CS(=O)(=O)N1CCN(Cc2cc3nc(-c4cccc5[nH]ncc45)nc(N4CCOCC4)c3s2)CC1 [Pictilisib] (partner 1 µM) : 0.439

For the compound CCCCCCCCCCCC1=C(O)C(=O)C=C(O)C1=O [Embelin] + NC(=O)Nc1cc(-c2cccc(F)c2)sc1C(=O)N[C@H]1CCCNC1 [AZD7762] (partner 0.2 µM) , what relative viability is on record?
0.876

And the next one, CCCCCCCCCCCC1=C(O)C(=O)C=C(O)C1=O [Embelin] + Cc1nc(Nc2ncc(C(=O)Nc3c(C)cccc3Cl)s2)cc(N2CCN(CCO)CC2)n1 [Dasatinib] (partner 0.075 µM) ?
0.178

And the next one, CCCCCCCCCCCC1=C(O)C(=O)C=C(O)C1=O [Embelin] + CCNC(=O)c1noc(-c2cc(C(C)C)c(O)cc2O)c1-c1ccc(CN2CCOCC2)cc1 [Luminespib] (partner 0.01 µM) ?
0.775

###

# Tested on: LCLC-97TM1
# method.description: relative viability (nuclei count vs DMSO), 5 days (fraction); higher = more cells survive
# reported.conditions: first compound 0.04 µM
Below, each entry is listed with its recorded relative viability.
Hey, just send me the number, nothing else.

COc1cc(N2CCC(C(N)=O)CC2)ccc1Nc1nc(N)c(Cl)c(Nc2ccccc2S(=O)(=O)C(C)C)n1 [HG-5-88-01] + Nc1nc2[nH]cc(CCc3ccc(C(=O)N[C@@H](CCC(=O)O)C(=O)O)cc3)c2c(=O)[nH]1 [Pemetrexed] (partner 0.2 µM) : 0.208
Clc1ccc(Nc2nnc(Cc3ccncc3)c3ccccc23)cc1 [Vatalanib] + COc1cc2c(Oc3ccc(NC(=O)C4(C(=O)Nc5ccc(F)cc5)CC4)cc3F)ccnc2cc1OCCCN1CCOCC1 [Foretinib] (partner 0.25 µM) : 0.975

Could you now look at the following compound, please?
What is its relative viability for LCLC-97TM1? Entry: Clc1ccc(Nc2nnc(Cc3ccncc3)c3ccccc23)cc1 [Vatalanib] + Cc1cc(Nc2cc(N3CCN(C)CC3)nc(Sc3ccc(NC(=O)C4CC4)cc3)n2)n[nH]1 [Tozasertib] (partner 0.1 µM)
0.301

###

# System: NCI-H1666
# method.description: relative viability (nuclei count vs DMSO), 5 days (fraction); higher = more cells survive
# reported.conditions: first compound 0.04 µM
Mark satisfied only for relative viability values smaller than 1; exact matches and larger values are not satisfied.

Study these solved cases before continuing.
COc1cc(N2CCC(C(N)=O)CC2)ccc1Nc1nc(N)c(Cl)c(Nc2ccccc2S(=O)(=O)C(C)C)n1 [HG-5-88-01] + N=C(N)NC(=N)NCCc1ccccc1 [Phenformin] (partner 250 µM) : satisfied
COc1cc(N2CCC(C(N)=O)CC2)ccc1Nc1nc(N)c(Cl)c(Nc2ccccc2S(=O)(=O)C(C)C)n1 [HG-5-88-01] + Cc1nc(Nc2ncc(C(=O)Nc3c(C)cccc3Cl)s2)cc(N2CCN(CCO)CC2)n1 [Dasatinib] (partner 0.075 µM) : satisfied
Clc1ccc(Nc2nnc(Cc3ccncc3)c3ccccc23)cc1 [Vatalanib] + NC(=O)Nc1cc(-c2cccc(F)c2)sc1C(=O)N[C@H]1CCCNC1 [AZD7762] (partner 0.2 µM) : satisfied
C[C@@H]1CN(CC(=O)Nc2ccc3c(c2)Cc2cccc(-c4cc(=O)cc(N5CCOCC5)o4)c2S3)C[C@H](C)O1 + CC(C)C[C@H](NC(=O)[C@H](Cc1ccccc1)NC(=O)c1cnccn1)B(O)O [Bortezomib] (partner 0.002 µM) : satisfied

Here is the next item to consider.
# TODO verify relative viability < 1 strictly for this molecule: C[C@@H]1CN(CC(=O)Nc2ccc3c(c2)Cc2cccc(-c4cc(=O)cc(N5CCOCC5)o4)c2S3)C[C@H](C)O1 + CC1(C)CCC(c2ccc(Cl)cc2)=C(CN2CCN(c3ccc(C(=O)NS(=O)(=O)c4ccc(N[C@H](CCN5CCOCC5)CSc5ccccc5)c(S(=O)(=O)C(F)(F)F)c4)cc3)CC2)C1 [Navitoclax] (partner 0.5 µM)
not satisfied

###

# Test system: HCC-827
# method.description: relative viability (nuclei count vs DMSO), 5 days (fraction); higher = more cells survive
# reported.conditions: first compound 0.08 µM
measured.metric: relative viability
Hey, just send me the number, nothing else.

// solved cases for relative viability follow
CCCCCCCCCCCC1=C(O)C(=O)C=C(O)C1=O [Embelin] + NC(=O)Nc1cc(-c2cccc(F)c2)sc1C(=O)N[C@H]1CCCNC1 [AZD7762] (partner 0.2 µM) : 0.191
CCCCCCCCCCCC1=C(O)C(=O)C=C(O)C1=O [Embelin] + O=C(CCCCCCC(=O)Nc1ccccc1)NO [Vorinostat] (partner 1 µM) : 0.806
CCCCCCCCCCCC1=C(O)C(=O)C=C(O)C1=O [Embelin] + COc1cccc2cc(-c3nc([C@H]4CC[C@H](C(=O)O)CC4)n4ncnc(N)c34)[nH]c12 [OSI-027] (partner 0.5 µM) : 0.749

Could you now look at the following compound, please?
For the compound CCCCCCCCCCCC1=C(O)C(=O)C=C(O)C1=O [Embelin] + Cc1nc(NC(=O)N2CCC[C@H]2C(N)=O)sc1-c1ccnc(C(C)(C)C(F)(F)F)c1 [Alpelisib] (partner 2 µM) , what relative viability is on record?
1.03

###

# Tested on: LC-2-ad
# method.description: relative viability (nuclei count vs DMSO), 5 days (fraction); higher = more cells survive
# reported.conditions: first compound 0.4 µM
measured.metric: relative viability
Hey, just send me the number, nothing else.

C[C@@H]1CN(CC(=O)Nc2ccc3c(c2)Cc2cccc(-c4cc(=O)cc(N5CCOCC5)o4)c2S3)C[C@H](C)O1 + NC(=O)Nc1cc(-c2cccc(F)c2)sc1C(=O)N[C@H]1CCCNC1 [AZD7762] (partner 0.2 µM) : 0.86

Could you now look at the following compound, please?
What is its relative viability for LC-2-ad? Entry: COc1cc(N2CCC(C(N)=O)CC2)ccc1Nc1nc(N)c(Cl)c(Nc2ccccc2S(=O)(=O)C(C)C)n1 [HG-5-88-01] + CC(C)C[C@H](NC(=O)[C@H](Cc1ccccc1)NC(=O)c1cnccn1)B(O)O [Bortezomib] (partner 0.002 µM)
0.945

###

# Tested on: NCI-H1666
# method.description: relative viability (nuclei count vs DMSO), 5 days (fraction); higher = more cells survive
# reported.conditions: first compound 0.01 µM
measured.metric: relative viability
Hey, just send me the number, nothing else.

CC(C)Oc1cc(Nc2nc(N[C@@H](C)c3ccc(F)cn3)ncc2Cl)n[nH]1 [AZ23] + O=C(CCCCCCC(=O)Nc1ccccc1)NO [Vorinostat] (partner 1 µM) : 0.859

For the compound CC(C)Oc1cc(Nc2nc(N[C@@H](C)c3ccc(F)cn3)ncc2Cl)n[nH]1 [AZ23] + CS(=O)(=O)N1CCN(Cc2cc3nc(-c4cccc5[nH]ncc45)nc(N4CCOCC4)c3s2)CC1 [Pictilisib] (partner 1 µM) , what relative viability is on record?
0.51

And the next one, CC(C)Oc1cc(Nc2nc(N[C@@H](C)c3ccc(F)cn3)ncc2Cl)n[nH]1 [AZ23] + Cc1nc(Nc2ncc(C(=O)Nc3c(C)cccc3Cl)s2)cc(N2CCN(CCO)CC2)n1 [Dasatinib] (partner 0.075 µM) ?
0.891

And the next one, CC(C)Oc1cc(Nc2nc(N[C@@H](C)c3ccc(F)cn3)ncc2Cl)n[nH]1 [AZ23] + CC(=O)Nc1cccc(-n2c(=O)n(C3CC3)c(=O)c3c(Nc4ccc(I)cc4F)n(C)c(=O)c(C)c32)c1 [Trametinib] (partner 0.02 µM) ?
0.804

And the next one, CC(C)Oc1cc(Nc2nc(N[C@@H](C)c3ccc(F)cn3)ncc2Cl)n[nH]1 [AZ23] + Cc1cc(Nc2cc(N3CCN(C)CC3)nc(Sc3ccc(NC(=O)C4CC4)cc3)n2)n[nH]1 [Tozasertib] (partner 0.1 µM) ?
0.558

And the next one, CC(C)Oc1cc(Nc2nc(N[C@@H](C)c3ccc(F)cn3)ncc2Cl)n[nH]1 [AZ23] + CC1(C)CCC(c2ccc(Cl)cc2)=C(CN2CCN(c3ccc(C(=O)NS(=O)(=O)c4ccc(N[C@H](CCN5CCOCC5)CSc5ccccc5)c(S(=O)(=O)C(F)(F)F)c4)cc3)CC2)C1 [Navitoclax] (partner 0.5 µM) ?
0.79

And the next one, CC(C)Oc1cc(Nc2nc(N[C@@H](C)c3ccc(F)cn3)ncc2Cl)n[nH]1 [AZ23] + COc1cccc2cc(-c3nc([C@H]4CC[C@H](C(=O)O)CC4)n4ncnc(N)c34)[nH]c12 [OSI-027] (partner 0.5 µM) ?
0.847

And the next one, CC(C)Oc1cc(Nc2nc(N[C@@H](C)c3ccc(F)cn3)ncc2Cl)n[nH]1 [AZ23] + C[C@]1(O)C[C@@H](c2nc(-c3ccc4ccc(-c5ccccc5)nc4c3)c3c(N)nccn32)C1 [Linsitinib] (partner 1 µM) ?
0.719
